molecular target: cynomolgus PAI-1 (cynomolgus (Macaca fascicularis), UniProt P05121 24-402 (human entry)); test: cell-based or functional assay
Parameter Cyno PAI-1 neutralization Y50%: see the listing below.
Value Type: Cyno PAI-1 neutralization Y50% (%)

[[record]]
binder = "A44-hv13 (antibody, V domains shown) VH: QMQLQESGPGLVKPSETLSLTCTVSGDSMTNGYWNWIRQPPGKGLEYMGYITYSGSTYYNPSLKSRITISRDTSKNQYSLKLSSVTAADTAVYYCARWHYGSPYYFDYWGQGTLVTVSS VL: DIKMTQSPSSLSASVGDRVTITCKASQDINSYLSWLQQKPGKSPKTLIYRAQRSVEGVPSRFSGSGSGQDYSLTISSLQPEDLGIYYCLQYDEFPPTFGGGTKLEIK"
unit_name = "%"
reported_value = 52.8

[[record]]
binder = "A44-hv12 (antibody, V domains shown) VH: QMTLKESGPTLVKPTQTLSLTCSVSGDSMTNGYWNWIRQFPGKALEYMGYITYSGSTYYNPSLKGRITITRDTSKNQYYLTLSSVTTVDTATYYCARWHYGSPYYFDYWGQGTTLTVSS VL: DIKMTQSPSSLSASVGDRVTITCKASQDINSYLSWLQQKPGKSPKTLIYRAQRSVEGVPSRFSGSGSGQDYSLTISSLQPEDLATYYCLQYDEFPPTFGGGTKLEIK"
unit_name = "%"
reported_value = 53.5

[[record]]
binder = "A44-hv14 (antibody, V domains shown) VH: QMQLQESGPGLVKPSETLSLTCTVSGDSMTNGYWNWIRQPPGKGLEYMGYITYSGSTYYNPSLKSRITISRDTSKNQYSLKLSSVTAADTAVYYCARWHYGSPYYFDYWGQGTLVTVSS VL: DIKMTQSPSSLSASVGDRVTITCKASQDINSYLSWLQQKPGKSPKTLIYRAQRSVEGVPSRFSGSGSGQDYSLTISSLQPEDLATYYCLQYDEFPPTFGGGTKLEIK"
unit_name = "%"
reported_value = 52.5

